Exercise: for every item that follows, state its recorded inhibition.
- target desc: Alkaline phosphatase, placental type (Homo sapiens) (UniProt P05187)
- Sequence (P05187 whole entry, looked up): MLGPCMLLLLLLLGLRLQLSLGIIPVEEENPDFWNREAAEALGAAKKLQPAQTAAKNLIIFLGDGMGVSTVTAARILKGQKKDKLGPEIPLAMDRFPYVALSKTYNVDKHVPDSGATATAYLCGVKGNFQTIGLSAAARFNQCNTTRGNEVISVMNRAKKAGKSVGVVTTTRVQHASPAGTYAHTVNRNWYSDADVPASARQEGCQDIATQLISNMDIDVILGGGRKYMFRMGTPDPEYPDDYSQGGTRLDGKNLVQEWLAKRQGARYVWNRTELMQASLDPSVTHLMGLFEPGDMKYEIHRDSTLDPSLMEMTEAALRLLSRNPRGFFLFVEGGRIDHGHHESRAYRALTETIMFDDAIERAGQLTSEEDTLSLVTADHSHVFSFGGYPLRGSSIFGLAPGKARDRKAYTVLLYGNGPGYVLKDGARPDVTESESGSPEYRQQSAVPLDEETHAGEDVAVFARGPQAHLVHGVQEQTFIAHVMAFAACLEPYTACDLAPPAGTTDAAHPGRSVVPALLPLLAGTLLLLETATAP
- assay text: PLAP enzyme inhibitors, biochemical, luminescence, HTS (AID 690)
- reported conditions: purified PLAP, luminescent substrate; at 20 µM; hits give high values
Hit rate of the full screen: of about 96,000 compounds, about 80 (0.08%) were called active. These entries were drawn from the full list. Entries with a potency or affinity are not part of this list. Residues, ends and D or L forms follow the SMILES beside them.
Give bare numbers, in %.

Recorded results for 5 compounds are shown here.
compound: COCCCNC(=O)CCn1c(=O)c2ccccc2n(CC(=O)Nc2cc(Cl)ccc2C)c1=O
inhibition, %: 7.1

compound: CCn1c(SCC(=O)C(C)(C)C)nnc1-c1ccccc1OC
inhibition, %: 5.6

compound: O=C1C2C3C=CC(C3)C2C(=O)N1c1cccc(N2C(=O)C3C4C=CC(C4)C3C2=O)n1 (stereo not drawn)
inhibition, %: -1.8

compound: O=C(Nc1ccc(F)cc1)c1ccccc1CC[N+](=O)[O-]
inhibition, %: 8.4

compound: C=CCn1c(SCC(=O)Nc2ccc3c(c2)OCO3)nnc1-c1ccccc1OC
inhibition, %: -54.3

For every record below, what is its inhibition?
1. COC(=O)CSc1nsc(SCC(=O)OC)c1C#N
2. CN1/C(=C\C(=O)c2ccco2)C(C)(C)c2ccccc21
3. O=c1oc2ccccc2n1CSc1nc2ccccc2s1
4. COC(=O)C(CC(C)C)NC(=O)C(N)Cc1ccccc1 (stereo not drawn) (H-Phe-Leu-OMe; configuration not given here)
5. CC1=NOC(=O)/C1=C/c1ccc(N(C)C)cc1
6. COc1cccc(OCCNc2cc(N3CCCCC3)ccc2[N+](=O)[O-])c1
7. C=CCn1c(SCC(=O)c2ccc(OC)cc2)nnc1-c1cc2cccc(OC)c2o1

Outgoing:
1. 13.1
2. 3.8
3. 46.4
4. -5.6
5. -1.4
6. -2.3
7. 21.9

For every record below, what is its inhibition?
1. CCOC(=O)C1=C(O)/C(=C\c2ccc(OC)c(OC)c2)N=C1C
2. COC(=O)C(N)Cc1ccc(O)cc1 (stereo not drawn)
3. O=C1C2CC=CCC2C(=O)N1c1n[nH]c(CCc2ccccc2)n1 (stereo not drawn)
4. COc1ccc(C2=Nn3c(nnc3-c3ccco3)SC2)cc1
5. COc1ccc(-n2nnnc2SCC(N)=O)cc1
6. CCc1c(C#N)c(N)nc(SCC(=O)OCc2ccccc2)c1C#N

Outgoing:
[-24.6, 18.8, -20.2, -72.6, 20.8, 14.4]

For every record below, what is its inhibition?
1. CN1/C(=C/C=N/n2cnnc2)C(C)(C)c2ccccc21
2. CN(C)c1nc(C(=O)NN)nc(N(C)C)n1
3. CCn1c(CSc2nc3ccccc3s2)nnc1SCC(=O)c1ccc(O)cc1O

Outgoing:
16.4
21.7
-26.1

For every record below, what is its inhibition?
1. COc1cccc(C2=Nn3c(nnc3-c3ccccc3O)SC2)c1
2. COc1ccc(-n2nnnc2SCC(=O)c2cccc(OC)c2)cc1

Outgoing:
[-37.4, 8.8]
